Origin of the recorded values: patent US20190040115A1

experimental.system: T1, HLA-A*02:01 (human)
T1 construct: captured on streptavidin plates; also called peptide-receptive MHC molecules
test.summary: UV peptide exchange ELISA (anti-b2m); yield grade: + >10%, ++ >20%, +++ >50, ++++ >75%
Measured peptide exchange yield values are reported for all entries that follow.

>>> df
      binder  endpoint_result
0  FLNLFNHTL            > 75%
1  RLEAYLARV        50 to 75%

Here is the next item to consider.
In: Fill blank: measured peptide exchange yield of the binder VLPAVLTRL is ____.
Out: 50 to 75%
